# target under test: T1, hCMV gH, gL, UL128, UL130 and UL131A co-expressed in HEK293T cells (human cytomegalovirus, UniProt P12824 24-743; P16832 31-278; P16837 1-171; P16772 1-214)
# T1 construct: whole, on cells; also called gH + gL + UL128 + UL130 + UL131A; gH/gL/UL128-130 complex
# assay: cell cross-competition, 20x excess; competitor 2C12-biotin
endpoint: Inhibition of binding (%)
Answers are plain numbers, in %.

Example binders with recorded Inhibition of binding (%):
- binder: "7B13 (antibody, V domains shown, human IgG mAb) VH: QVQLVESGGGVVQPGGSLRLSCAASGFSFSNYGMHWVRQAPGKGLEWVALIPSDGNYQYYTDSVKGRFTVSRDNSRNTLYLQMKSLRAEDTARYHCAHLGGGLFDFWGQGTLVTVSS VL: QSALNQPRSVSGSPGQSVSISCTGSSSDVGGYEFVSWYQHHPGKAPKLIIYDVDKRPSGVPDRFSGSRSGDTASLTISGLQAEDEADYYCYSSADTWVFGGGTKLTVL"
  scale unit: "%"
  Inhibition of binding (%): 100
- binder: "10F7 (antibody, V domains shown, human IgG mAb; also called 10F7-biotin) VH: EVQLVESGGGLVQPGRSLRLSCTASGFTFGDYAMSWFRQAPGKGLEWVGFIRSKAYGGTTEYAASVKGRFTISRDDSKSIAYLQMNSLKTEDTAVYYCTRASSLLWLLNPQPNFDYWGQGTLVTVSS VL: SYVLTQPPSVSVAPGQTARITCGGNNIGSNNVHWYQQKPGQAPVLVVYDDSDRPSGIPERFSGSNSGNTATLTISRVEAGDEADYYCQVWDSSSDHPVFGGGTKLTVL"
  scale unit: "%"
  Inhibition of binding (%): 0
- binder: "9I6 (antibody, V domains shown, human IgG mAb; also called 9I6-biotin; 916) VH: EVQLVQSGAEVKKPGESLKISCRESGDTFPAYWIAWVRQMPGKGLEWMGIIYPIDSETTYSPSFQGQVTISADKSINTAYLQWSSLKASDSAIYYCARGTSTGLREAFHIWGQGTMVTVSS VL: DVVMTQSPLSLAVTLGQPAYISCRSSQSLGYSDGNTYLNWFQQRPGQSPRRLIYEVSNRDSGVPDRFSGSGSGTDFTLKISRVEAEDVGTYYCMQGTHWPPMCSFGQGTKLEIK"
  scale unit: "%"
  Inhibition of binding (%): 100

Kindly review the next binder as well.
[ask] Report Inhibition of binding (%) for 15D8 (antibody, V domains shown, human IgG mAb; also called 15D8-biotin) VH: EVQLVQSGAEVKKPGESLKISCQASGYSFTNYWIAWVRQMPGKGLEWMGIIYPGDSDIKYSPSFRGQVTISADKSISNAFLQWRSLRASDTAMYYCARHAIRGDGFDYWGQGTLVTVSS VL: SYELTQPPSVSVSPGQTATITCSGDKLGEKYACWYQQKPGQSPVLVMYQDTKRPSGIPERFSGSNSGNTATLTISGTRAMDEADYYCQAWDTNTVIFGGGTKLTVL please.
[reply] 0

Values were extracted from patent US20100092481A1.
